Source of measurements: patent US10081635B2

studySystem: UniProt:P23458
Sequence (P23458 whole entry): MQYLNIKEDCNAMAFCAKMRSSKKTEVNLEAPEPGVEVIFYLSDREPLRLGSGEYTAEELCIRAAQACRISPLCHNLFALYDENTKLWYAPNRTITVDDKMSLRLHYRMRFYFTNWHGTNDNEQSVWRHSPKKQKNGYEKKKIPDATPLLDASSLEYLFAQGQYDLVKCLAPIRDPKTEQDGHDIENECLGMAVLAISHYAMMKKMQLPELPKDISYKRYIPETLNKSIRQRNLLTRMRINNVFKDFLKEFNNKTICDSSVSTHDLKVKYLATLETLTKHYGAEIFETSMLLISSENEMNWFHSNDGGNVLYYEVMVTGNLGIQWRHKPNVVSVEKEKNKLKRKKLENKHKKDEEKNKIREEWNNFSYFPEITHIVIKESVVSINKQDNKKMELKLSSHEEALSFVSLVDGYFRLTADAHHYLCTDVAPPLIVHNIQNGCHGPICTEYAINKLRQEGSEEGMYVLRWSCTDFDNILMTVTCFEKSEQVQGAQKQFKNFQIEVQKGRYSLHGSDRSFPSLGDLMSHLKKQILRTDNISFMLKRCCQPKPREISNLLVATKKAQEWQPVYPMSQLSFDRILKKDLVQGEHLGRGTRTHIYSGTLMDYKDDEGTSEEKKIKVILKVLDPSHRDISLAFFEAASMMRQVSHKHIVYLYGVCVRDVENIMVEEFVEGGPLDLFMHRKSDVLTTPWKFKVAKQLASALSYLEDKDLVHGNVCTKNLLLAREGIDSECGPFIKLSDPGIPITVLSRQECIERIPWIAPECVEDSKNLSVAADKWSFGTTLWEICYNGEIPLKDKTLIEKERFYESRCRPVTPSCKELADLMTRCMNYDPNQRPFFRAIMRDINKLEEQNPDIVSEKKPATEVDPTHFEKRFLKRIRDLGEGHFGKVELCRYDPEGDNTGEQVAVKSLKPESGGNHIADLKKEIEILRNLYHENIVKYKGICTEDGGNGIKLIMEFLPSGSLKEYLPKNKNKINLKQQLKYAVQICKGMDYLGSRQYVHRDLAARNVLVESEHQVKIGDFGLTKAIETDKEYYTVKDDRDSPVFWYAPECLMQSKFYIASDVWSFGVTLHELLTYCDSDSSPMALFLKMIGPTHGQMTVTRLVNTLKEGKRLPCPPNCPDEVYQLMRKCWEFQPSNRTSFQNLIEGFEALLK
protocol: In vitro kinase inhibition test, JAK1 (33P-ATP filter scintillation)
Assay type: biochemical
protocolConditions: compound at 1 uM; read-out: JAK1 kinase-phosphorylation inhibitory level (% inhibition)
endpointName: inhibition at 1 µM (%)

INSERT INTO assay_data (molecule, endpointname, measuredresult) VALUES
  ('CCCCN1C[C@H](N(C)c2ncnc3[nH]ccc23)C2(CC2)C1', 'inhibition at 1 µM', 79),
  ('CC(=O)NCC(=O)N1CC(N(C)c2ncnc3[nH]ccc23)C2(CC2)C1 (centres unmarked)', 'inhibition at 1 µM', 9);

(a) CN(c1ncnc2[nH]ccc12)[C@H]1CN(C(=O)CC#N)CC12CC2
(b) CNC(=O)CC(=O)N1CC(N(C)c2ncnc3[nH]ccc23)C2(CC2)C1 (centres unmarked)
Exercise: compare a and b ; which one has the greater inhibition at 1 µM? Reply briefly: the label of your chosen item. a
(a: 95%, b: 55%)

(I) CN(c1ncnc2[nH]ccc12)[C@H]1CN(C(=O)c2cccnc2)CC12CC2
(II) CN(c1ncnc2[nH]ccc12)[C@@H]1CN(S(=O)(=O)c2ccccc2)CC12CC2
(III) CC(C)COC(=O)N1C[C@@H](N(C)c2ncnc3[nH]ccc23)C2(CC2)C1
Thanks in advance: please rank these 3 entries by inhibition at 1 µM, highest to lowest. In your reply, arrange the labels in the requested order. I, II, III
(I: 80%, II: 55%, III: 31%)
